Below are pIC50 measurements against Ubiquitin carboxyl-terminal hydrolase isozyme L3 (Homo sapiens) drawn from the literature.
Sequence (P15374 whole entry): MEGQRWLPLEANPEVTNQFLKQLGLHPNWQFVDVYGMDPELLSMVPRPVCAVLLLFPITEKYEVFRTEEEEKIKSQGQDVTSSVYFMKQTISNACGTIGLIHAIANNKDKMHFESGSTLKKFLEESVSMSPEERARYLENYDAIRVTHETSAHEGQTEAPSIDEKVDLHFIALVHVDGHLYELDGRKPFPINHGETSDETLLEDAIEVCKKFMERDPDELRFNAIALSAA
pIC50: −log10 of the molar value.
READOUT_KIND: pIC50

>>> print(df.to_string())
                                   compound  inequality_operator  reported_value
0  Cc1ccc(C(=O)C2=C(O)C(=O)N(Cc3cccnc3)C2c2ccc(F)cc2)o1 (centres undefined)                    =            3.91
1  Nc1cc(-c2cc(Cl)cc3c2OC(C(=O)N2CCNCC2)C3)ccn1 (racemic)                    <            4.10
2  O=C(NCCc1ccc(Cl)cc1)c1ccc2nc3c(c(Cl)c2c1)CCCC3                    <            3.70
3  Cc1ccc(C(=O)C2=C(O)C(=O)N(Cc3ccccc3)C2c2cccnc2)o1 (centres undefined)                    =            3.99
